Tested on: OVCAR-5 complex spheroids with HUVEC/MSC, viability, % test/control
Assay: Anticancer human tumor OVCAR-5 cell line growth inhibition [AhR];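 note: spheroids exposed to compounds for 7 days; 100% = DMSO vehicle control wells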
Details: second compound 0.1 µM; first compound 0.0949 µM; active compounds read low
Recorded Metric: viability, T/C (%)
The response must be a number in % with no trailing unit.

q: Please state recorded viability, T/C (tested on OVCAR-5 complex spheroids with HUVEC/MSC, viability, % test/control) of CC(C)CC(NC(=O)C(Cc1ccccc1)NC(=O)c1cnccn1)B(O)O (stereo not drawn) + Cc1cncc(-c2nc(NCCc3c[nH]c4ccccc34)c3ncn(C(C)C)c3n2)c1
a: 32.2

q: # get_value(readout= viability, T/C, system= OVCAR-5 complex spheroids with HUVEC/MSC, viability, % test/control) for CCN(c1cc(-c2ccc(CN3CCOCC3)cc2)cc(C(=O)NCc2c(C)cc(C)[nH]c2=O)c1C)C1CCOCC1 + Cc1ccccc1N=Nc1ccc(NC(=O)c2ccnn2C)c(C)c1
a: 102

Please look at the following molecule next.
q: Lab note: need viability, T/C for O=C(C=Cn1cnc(-c2cc(C(F)(F)F)cc(C(F)(F)F)c2)n1)NNc1cnccn1 + Cc1ccccc1N=Nc1ccc(NC(=O)c2ccnn2C)c(C)c1 on OVCAR-5 complex spheroids with HUVEC/MSC, viability, % test/control, anyone have it?
a: 102

* * *

Measured viability, T/C, listed per entry.
Test system: OVCAR-5 complex spheroids with HUVEC/MSC, viability, % test/control
Experiment: Anticancer human tumor OVCAR-5 cell line growth inhibition [AhR];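 note: spheroids exposed to compounds for 7 days; 100% = DMSO vehicle control wells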
Details: second compound 3.16 µM; first compound 0.0316 µM; active compounds read low
From the text: Multicellular complex tumor spheroid response to aryl hydrocarbon receptor antagonists in combination with a variety of drugs and investigational agents in selected tumor cell lines […] Compounds. […] If the clinical Cmax for an agent had not been determined, the highest concentration tested was 10 microM (Table 1). […]

q: Requested read-out viability, T/C, target or system OVCAR-5 complex spheroids with HUVEC/MSC, viability, % test/control, entry Nc1ccccc1NC(=O)c1ccc(CNC(=O)OCc2cccnc2)cc1 + Cc1ccccc1N=Nc1ccc(NC(=O)c2ccnn2C)c(C)c1
a: 103%

q: GET /values?readout=viability, T/C&system=OVCAR-5 complex spheroids with HUVEC/MSC, viability, % test/control&item= Nc1ccn(C2OC(CO)C(O)C2(F)F)c(=O)n1 (centres undefined) + Cc1ccccc1N=Nc1ccc(NC(=O)c2ccnn2C)c(C)c1
a: 28.9%

q: For the record O=C(c1cc(Cc2n[nH]c(=O)c3ccccc23)ccc1F)N1CCN(C(=O)C2CC2)CC1 + CC(CO)NC(=O)c1cc(-c2ccc(Cl)cc2)nn(-c2cnn(C)c2)c1=O , what value of viability, T/C is listed for OVCAR-5 complex spheroids with HUVEC/MSC, viability, % test/control?
a: 104%

q: Any idea what viability, T/C came out for Nc1ccn(C2OC(CO)C(O)C2(F)F)c(=O)n1 (centres undefined) + Cc1cncc(-c2nc(NCCc3c[nH]c4ccccc34)c3ncn(C(C)C)c3n2)c1 on OVCAR-5 complex spheroids with HUVEC/MSC, viability, % test/control?
a: 33.6%

* * *

Test system: OVCAR-5 complex spheroids with HUVEC/MSC, viability, % test/control
Assay: Anticancer human tumor OVCAR-5 cell line growth inhibition [AhR];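 note: spheroids exposed to compounds for 7 days; 100% = DMSO vehicle control wells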
Settings: second compound 1 µM; first compound 0.001 µM; active compounds read low
// viability, T/C lookup, one value per entry
Respond with the bare value in %.

Sample answers from the record:
q: I'd like to know its viability, T/C. The compound in question is Cn1ncnc1C1c2n[nH]c(=O)c3cc(F)cc(c23)NC1c1ccc(F)cc1 (stereo unspecified) + Cc1ccccc1N=Nc1ccc(NC(=O)c2ccnn2C)c(C)c1
a: 113

q: Return reported viability, T/C; argument: CC[C@@]1(O)C(=O)OCc2c1cc1n(c2=O)Cc2cc3c(CN(C)C)c(O)ccc3nc2-1 + Cc1ccccc1N=Nc1ccc(NC(=O)c2ccnn2C)c(C)c1
a: 108

q: For CC[C@@]1(O)C(=O)OCc2c1cc1n(c2=O)Cc2cc3c(CN(C)C)c(O)ccc3nc2-1 + CC(CO)NC(=O)c1cc(-c2ccc(Cl)cc2)nn(-c2cnn(C)c2)c1=O , what is its reported viability, T/C?
a: 119

Continuing:
q: Can you look up the measured viability, T/C of CC[C@@]1(O)C(=O)OCc2c1cc1n(c2=O)Cc2cc3c(CN(C)C)c(O)ccc3nc2-1 + Cc1cncc(-c2nc(NCCc3c[nH]c4ccccc34)c3ncn(C(C)C)c3n2)c1 for me?
a: 91.6

q: Please look up its viability, T/C: Cn1ncnc1C1c2n[nH]c(=O)c3cc(F)cc(c23)NC1c1ccc(F)cc1 (stereo unspecified) + Cc1cncc(-c2nc(NCCc3c[nH]c4ccccc34)c3ncn(C(C)C)c3n2)c1
a: 97.9

q: Request the reported viability, T/C associated with Cn1ncnc1C1c2n[nH]c(=O)c3cc(F)cc(c23)NC1c1ccc(F)cc1 (stereo unspecified) + CC(CO)NC(=O)c1cc(-c2ccc(Cl)cc2)nn(-c2cnn(C)c2)c1=O
a: 114
